All values here come from PubChem BioAssay (NCI).

test system: HOP-62 NSCLC; experiment: NCI tumour cell line growth inhibition, 48 h
Could you please report measured TGI for the items listed next?

Some solved cases for reference:
Looking up CCOC(=O)C1=C(C)N(NC(=O)Nc2ccccc2)C2(N)N(NC(=O)Nc3ccccc3)C(C)=C(C(=O)OCC)C12C(=O)OCC (stereo not given) , I see its TGI listed as 84.7 µM

Looking up CC(=O)CC1CCC(=O)/C=C/C(=O)OC(CC(C)=O)CCC(=O)/C=C/C(=O)O1 (stereo not given) , I see its TGI listed as 42.8 µM

Looking up CCOC(=O)CCCSCCCC(=O)CCCSCCCC(=O)OCC , I see its TGI listed as > 100 µM

Count: 6. Required value per item: TGI.
1. COc1ccc(S(=O)(=O)n2c3c(c4ccccc42)[C@@H]2[C@@H](CCCN2C(=O)CS(=O)c2ccc(C)cc2)[C@H](Cl)C3)cc1 (stereo not given in full)
2. O=C(CC1Sc2ccccc2NC1=O)Nc1ccccc1[N+](=O)[O-] (stereo not given)
3. CCOC(=O)C1Sc2ccccc2N=C1C (stereo not given)
4. CC(=C(c1ccc(OCCN2CCCCC2)cc1)c1ccc(OCCN2CCCCC2)cc1)c1ccc(Cl)cc1
5. CN(C)CC1CCC/C1=N/OC(=O)c1ccccc1 (stereo not given)
6. COc1ccc(CN2C(=O)C(Cl)=C(Nc3cccc(C(F)(F)F)c3)C2=O)cc1

Reply text:
1: > 100 µM; 2: > 100 µM; 3: > 100 µM; 4: 0.888 µM; 5: > 100 µM; 6: > 100 µM

Count: 2. Required value per item: TGI.
1. N=c1oc2ccccc2cc1C(=O)NC12CC3CC(CC(C3)C1)C2
2. CN(C)C=Nc1nc(=O)n(C2CCC(CO)O2)cc1F (stereo not given)

Reply text:
1. > 83.7 µM
2. > 100 µM

Count: 3. Required value per item: TGI.
1. Cc1ccc(C(=O)OC(C(=O)O)C(OC(=O)c2ccc(C)cc2)C(=O)O)cc1 (stereo not given) (tested in a mixture with another compound)
2. S=P1(Oc2ccccc2)NNP2(=NP(N3CC3)(N3CC3)=NP(N3CC3)(N3CC3)=N2)NN1 (stereo not given)
3. O=C1SC(SCc2ccccc2)=NC12CC2c1ccccc1 (stereo not given)

Reply text:
1: 29.2 µM; 2: > 100 µM; 3: > 82.8 µM

Count: 6. Required value per item: TGI.
1. O=C1/C(=C/c2ccco2)NC(=S)N1CN1CCCCC1
2. CCOC(=O)/C(=C/c1ccc(OC)cc1)N(CC)CC
3. O=C(NC1CCCCC1)NS(=O)(=O)c1ccc(N2N=C3c4ccccc4CC3C2c2ccc(Cl)cc2)cc1 (stereo not given)
4. NC(=S)N/N=C1\c2cc(Cl)ccc2-c2c1cc(Cl)cc2[N+](=O)[O-]
5. Cc1cc(OC(=O)Nc2cccc3ccccc23)c(C(C)C)cc1C(=S)Nc1ccccc1
6. CCOC(=O)C(=[N+]=[N-])C(=O)CN1C(=O)c2ccccc2C1=O

Reply text:
["> 100 µM", "> 100 µM", "30.9 µM", "74.7 µM", "34.9 µM", "> 100 µM"]

====

tested on: HCT-15 colon; test: NCI tumour cell line growth inhibition, 48 h
measure_name: TGI

Looking up O=C(O)C(Cl)Cl , I see its TGI listed as > 10000 µM

Count: 2. Required value per item: TGI.
1. CCOC(=O)CCCSCCCC(=O)CCCSCCCC(=O)OCC
2. COc1ccc(NC(=S)c2ccc(CN3CCCCC3)s2)cc1

Reply text:
1. > 100 µM
2. 26.9 µM

====

tested on: HT29 colon; experiment: NCI tumour cell line growth inhibition, 48 h; in the data active = GI50 below about 0.43 µM; inactive = the rest
Answer with one of the outcomes given here: label 1 (active), label 0 (inactive)

Inquiry: Recorded test outcome, item Nc1nc2[nH]cc(CCc3ccc(C(=O)N[C@@H](CCC(=O)O)C(=O)O)cc3)c2c(=O)[nH]1
Reply text: label 0

Inquiry: Recorded test outcome, item COc1ccc2ncnc(Nc3ccc(OCc4ccccc4)cc3)c2c1
Reply text: label 0

Inquiry: Recorded test outcome, item COc1c2ccccc2c(OC)c2[nH]c(=O)ccc12
Reply text: label 0

New cases:
Inquiry: Recorded test outcome, item COc1ccc(C(c2cc(OC)c(OC)c(OC)c2)n2cncn2)cc1O (stereo not drawn)
Reply text: label 1

Inquiry: Recorded test outcome, item CCC(C)SC1SCC2C(=O)N(C)C3(CC3C)C(=O)OCC(NC(=O)c3nc4ccccc4cc3O)C(=O)NC(C)C(=O)N(C)C1C(=O)N(C)C1(CC1C)C(=O)OCC(NC(=O)c1nc3ccccc3cc1O)C(=O)NC(C)C(=O)N2C (stereo not drawn)
Reply text: label 1

Inquiry: Recorded test outcome, item Cc1cc(Nc2ccc(C)c(Cl)c2)n2nc(C(F)(F)F)nc2n1
Reply text: label 0

Inquiry: Recorded test outcome, item C=C1C(=O)O[C@H]2[C@H]1CC/C(CNC(=O)c1cc3ccccc3[nH]1)=C\CC[C@@]1(C)O[C@@H]21
Reply text: label 0

Inquiry: Recorded test outcome, item COCCn1cc(-c2nc(-c3cc4cccnc4[nH]3)cs2)c2cc(OC)ccc21
Reply text: label 0

Inquiry: Recorded test outcome, item CC1(C)[C@@H](NOCCCN)CC[C@]2(C)[C@H]3C(=O)C=C4[C@@H]5C[C@](C)(C(=O)O)CC[C@]5(C)CC[C@@]4(C)[C@]3(C)CC[C@@H]12
Reply text: label 0

Inquiry: Recorded test outcome, item CCOC(=O)n1cc(C2=C(c3ccc(OC)c(OC)c3)COC2=O)c2ccccc21
Reply text: label 1

Inquiry: Recorded test outcome, item Cc1cc2c(cc1C)[n+](=O)c(C(=O)c1ccccc1)c(C(F)F)n2[O-]
Reply text: label 0

Inquiry: Recorded test outcome, item C/C=C/[C@@H]1O[C@@H]2COC(=O)C2=C[C@@H]1O
Reply text: label 0

Inquiry: Recorded test outcome, item O=C(Nc1nn2c(-c3cc(C(F)(F)F)cc(C(F)(F)F)c3)nnc2s1)C1CCCC1
Reply text: label 0

====

Could you please report measured GI50 for the items listed next?
tested on: TK-10 renal; experiment: NCI tumour cell line growth inhibition, 48 h

Looking up COc1ccc2ncnc(Nc3ccc(OCc4ccccc4)cc3)c2c1 , I see its GI50 listed as 3.68 µM

Looking up Cc1cc(Nc2ccc(C)c(Cl)c2)n2nc(C(F)(F)F)nc2n1 , I see its GI50 listed as 31.2 µM

Next compound, please.
Looking up COc1cc(-c2nn(-c3cccc(NC(=O)c4ccccc4)c3)cc2-c2ccncc2)ccc1Cl , I see its GI50 listed as 4.12 µM

====

system: SF-268 CNS; experiment: NCI tumour cell line growth inhibition, 48 h
measure_name: TGI

Some solved cases for reference:
Looking up COc1ccc(C(SCCO)(c2ccccc2)c2ccc(OC)cc2)cc1 , I see its TGI listed as 26.8 µM

Looking up NC(N)=NS(=O)(=O)c1ccc(N=Nc2c(O)c(C(=O)O)cc3ccccc23)cc1 , I see its TGI listed as > 100 µM

Looking up CC1(C)CC(c2c[nH]c3ccccc23)=CC2=Nc3ccccc3C21O (stereo not drawn) , I see its TGI listed as > 100 µM

Looking up NCCNCCNCCN , I see its TGI listed as > 100 µM

Looking up CC(=O)Nc1cc2ccc(=O)oc2cc1Cl , I see its TGI listed as > 100 µM

Count: 5. Required value per item: TGI.
1. O=c1[nH]c2cc(Cl)ccc2nc1/C(=N\Nc1ccccc1)C(O)c1ccc(Cl)c(Cl)c1 (stereo not drawn)
2. CC(=O)OC1(C)N=NC2(CCCCC2)O1 (stereo not drawn)
3. COC(=O)CC(C)(NS(=O)c1ccc(C)cc1)c1ccccc1 (stereo not drawn)
4. COc1cc(-c2nn(-c3cccc(NC(=O)c4ccccc4)c3)cc2-c2ccncc2)ccc1Cl
5. O=C(/C=C/c1c(O)ccc2ccccc12)c1ccc([N+](=O)[O-])cc1

Reply text:
> 100 µM
> 100 µM
> 100 µM
> 54.8 µM
> 100 µM

Count: 6. Required value per item: TGI.
1. O=C1NC2(CCN(CCc3ccccc3)CC2)Oc2ccccc21
2. COc1ccc(C(c2cc(OC)c(OC)c(OC)c2)n2cncn2)cc1O (stereo not drawn)
3. N#CCCC[Si]12OCCN(CCO1)CCO2
4. COc1ccc(Cn2c(Br)c3c(c2Br)-c2nc(N)sc2CC3)cc1
5. CCNC(=O)c1ccc(C)c(N=NN(C)C)c1
6. COC(=O)c1ccc(Cc2cc(Cc3ccc(C(=O)OC)cc3)cc(Cc3ccc(C(=O)OC)cc3)c2)cc1

Reply text:
["> 100 µM", "> 100 µM", "> 100 µM", "46.6 µM", "> 100 µM", "> 25 µM"]

Count: 3. Required value per item: TGI.
1. CN1C(=O)C(=O)N2c3ccc(Cl)cc3C3(c4ccccc4)N=CC12O3 (stereo not drawn)
2. C/C(=N\NC(N)=S)c1ccc2c(c1)Sc1ccccc1O2
3. CCC(C)SC1SCC2C(=O)N(C)C3(CC3C)C(=O)OCC(NC(=O)c3nc4ccccc4cc3O)C(=O)NC(C)C(=O)N(C)C1C(=O)N(C)C1(CC1C)C(=O)OCC(NC(=O)c1nc3ccccc3cc1O)C(=O)NC(C)C(=O)N2C (stereo not drawn)

Reply text:
["25.6 µM", "8.36 µM", "0.00516 µM"]

Count: 3. Required value per item: TGI.
1. NC(Cc1ccccc1)C(=O)NC(Cc1ccccc1)NC(=O)C(Cc1c[nH]c2ccccc12)C(=O)O (stereo not drawn)
2. O=c1c(F)cn(Cc2c(Cl)cccc2Cl)c(=O)n1Cc1c(Cl)cccc1Cl
3. Cc1ccc(S(=O)(=O)N2CC2CCCCC=O)cc1 (stereo not drawn)

Reply text:
1: > 100 µM; 2: > 31.6 µM; 3: > 100 µM
